experiment description: NCI Yeast Anticancer Drug Screen. Data for the sgs1 mgt1 strain (AID 161);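 further: 0% = growth of cultures given vehicle only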
condition notes: S. cerevisiae sgs1 mgt1 strain, stronger effect = higher value; at 50.0 µM unless noted
About 79,000 compounds went through this panel and 15% of them were active in at least one assay; those are over-represented in the sample as a whole.
measurement type: growth inhibition (%)
// units = %; emit number, no label

[[record]]
compound = "O=C1CCCC/C1=C/C=C/c1ccccc1"
measurement_type = "growth inhibition"
recorded_number = 23.1

[[record]]
compound = "O=C(NC(CSC(c1ccccc1)(c1ccccc1)c1ccccc1)C(=O)O)OC(c1ccccc1)c1ccccc1 (configuration not stated)"
measurement_type = "growth inhibition"
recorded_number = 96.5

[[record]]
compound = "CN1C2=NC(=O)NC(=O)C23OC3c2ccccc21 (configuration not stated) (tested in a mixture with another compound)"
measurement_type = "growth inhibition"
recorded_number = -0.45

[[record]]
compound = "NS(=O)(=O)c1ccc(N=Nc2ncccc2O)cc1"
measurement_type = "growth inhibition"
recorded_number = -12.3


// moving on: another record for growth inhibition
Query string: Could you share which growth inhibition value was measured for `Cc1cc(=O)oc2nn(CCO)c(C)c12` ?
Result string: -10.1

----------
The reader will find reported growth inhibition values listed item by item below.
experiment description: NCI Yeast Anticancer Drug Screen. Data for the cln2 rad14 strain (AID 165);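 further: 0% = growth equal to vehicle treated cultures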
condition notes: S. cerevisiae cln2 rad14 strain, stronger effect = higher value; at 50.0 µM unless noted
Compounds without any hit were thinned out: in the full panel of roughly 79,000, 15% have a hit.
Respond numerically; units are % and should not be typed.

The following molecules have reported results that may help.
[[record]]
molecule = "CCN(CC)N=Nc1ccc(C(=O)O)cc1"
measurement_type = "growth inhibition"
recorded_number = -8.8

[[record]]
molecule = "CNC(CCCCC1CCCCC1)C(=O)O (stereo not drawn)"
measurement_type = "growth inhibition"
recorded_number = -10.8

[[record]]
molecule = "CNC(=O)NCCCCC(NC(=O)OCc1ccccc1)C(=O)OCc1ccccc1 (stereo not drawn)"
measurement_type = "growth inhibition"
recorded_number = -3.5

[[record]]
molecule = "O=c1[nH]c(=O)c2cc(Cl)ccc2[nH]1"
measurement_type = "growth inhibition"
recorded_number = -37

[[record]]
molecule = "Nc1nnc2nc(CC(=O)c3cccc([N+](=O)[O-])c3)/c(=C/C(=O)c3cccc([N+](=O)[O-])c3)n12"
measurement_type = "growth inhibition"
recorded_number = 7.45

[[record]]
molecule = "COc1ccc(C(=[N+]=[N-])c2ccc(OC)cc2)cc1"
measurement_type = "growth inhibition"
recorded_number = -48.2

[[record]]
molecule = "CCN(CC)CCNc1ccc(COC(=O)NC)c2sc3ccccc3c(=O)c12"
measurement_type = "growth inhibition"
recorded_number = -12.2

[[record]]
molecule = "CCN(C(=O)c1ccc(C(=O)N(CC)c2cccc(C)c2)cc1)c1cccc(C)c1"
measurement_type = "growth inhibition"
recorded_number = 8.05

[[record]]
molecule = "O=C(NCc1ccco1)Nc1ccccc1C(F)(F)F"
measurement_type = "growth inhibition"
recorded_number = 19.6

[[record]]
molecule = "C=CCNc1nc(Cl)nc2c1cnn2C"
measurement_type = "growth inhibition"
recorded_number = -21.3


Query string: Suppose we examine the molecule CC1=NN(c2ccc(S(=O)(=O)O)cc2)C(=O)C1N=Nc1ccc(-c2ccc(N=Nc3ccc(O)c(C(=O)O)c3)c(C)c2)cc1C (stereo not drawn) ; what growth inhibition value has been reported?
Result string: 17.1

Query string: Data request, read-out growth inhibition, for `N#Cc1ccc(CC(=O)c2ccccc2)cc1`
Result string: -27.4

Query string: Requested read-out: growth inhibition. Entry: `O=[N+]([O-])c1ccc(S(=O)(=O)O)cc1`
Result string: -22.7

Query string: Suppose we examine the molecule `Cc1ccccc1Cc1nccc2c1[nH]c1ccccc12` ; what growth inhibition value has been reported?
Result string: -29.5

Query string: Please give the measured growth inhibition for this molecule: `C[C@]12CCC(=O)C=C1CC[C@@H]1[C@@H]2C(=O)C[C@]2(C)/C(=C\C(=O)O)CC[C@@H]12`
Result string: -48.1

Query string: What value of measured growth inhibition is listed for `Nc1cncnc1N` ?
Result string: 16.2

Query string: Query: growth inhibition; subject: COc1ccc(OC)c(NC(=O)C(=O)C(C(C)=O)c2nc3ccc(Cl)cc3[nH]c2=O)c1 (stereo not drawn)
Result string: 12

----------
experiment description: NCI Yeast Anticancer Drug Screen. Data for the bub3 strain (AID 167)
condition notes: S. cerevisiae bub3 mutant strain; at 50.0 µM unless noted
Experimental: Growth inhibition of yeast strains with defined genetic alterations is measured as a screen for potential anti-cancer activity. Selected strains with alterations in DNA damage repair or cell cycle control were exposed to compounds and growth inhibition was measured relative to vehicle treated controls. The strain used in this assay is bub3
Compounds without any hit were thinned out: in the full panel of roughly 79,000, 15% have a hit. The source made the active and inactive calls. Rule as the data show it: active = growth inhibition above about 70%; inactive = the rest.
Answer with one of the outcomes given here: 1 = active, -1 = inactive

Some entries whose results are on file:
[[record]]
compound = "O=C(/C=C\\c1ccc(Cl)c(Cl)c1)c1ccc(Cl)cc1Cl"
label = -1

[[record]]
compound = "Clc1c(Cl)c(Cl)c(C[n+]2c(Cl)sc3ccccc32)c(Cl)c1Cl"
label = -1

[[record]]
compound = "O=C1CCc2nc(-c3ccccc3)ncc21"
label = -1

[[record]]
compound = "C/C(=C\\c1ccc(N(C)C)cc1)c1ccncc1"
label = 1

[[record]]
compound = "NC1CCCC2CCC(N)C12 (stereo unspecified)"
label = -1


Note: attention shifts to another entry.
Query string: Check the results log: what was the call for `CCOC(=O)c1c(NS(=O)(=O)c2ccc(C)cc2)sc(C)c1-c1ccccc1` ?
Result string: -1

----------
experiment description: NCI Yeast Anticancer Drug Screen. Data for the cln2 rad14 strain (AID 165);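 further: 0% = growth equal to vehicle treated cultures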
condition notes: S. cerevisiae cln2 rad14 strain, stronger effect = higher value; at 50.0 µM unless noted
About 79,000 compounds went through this panel and 15% of them were active in at least one assay; those are over-represented in the sample as a whole.
measurement type: growth inhibition (%)
Please give a number only; it is taken to be in %.

Some molecules with recorded growth inhibition:
[[record]]
molecule = "CN(C)c1ccc(S(=O)(=O)OC2C(C3COC(C)(C)O3)OC3OC(C)(C)OC32)cc1 (centres undefined)"
recorded_number = -16.2

[[record]]
molecule = "Cc1ccc(S(=O)(=O)/N=S(/Cc2ccccc2)c2c(C)cccc2C)cc1 (centres undefined)"
recorded_number = 17.6

[[record]]
molecule = "COc1ccc(NS(=O)c2ccccc2)cc1 (centres undefined)"
recorded_number = 6.65

[[record]]
molecule = "C1=NC(c2ccccc2)=CN(C2CCCCCCCCCCC2)C1(c1ccccc1)C1CCCCCCCCCCC1 (centres undefined)"
recorded_number = -19.4

[[record]]
molecule = "CC(=O)c1c(Cl)nnc(-c2ccccc2)c1-c1ccccc1"
recorded_number = -21.9

[[record]]
molecule = "Cc1ccc(C(CCC#N)OC(C)C)cc1 (centres undefined)"
recorded_number = 11.9


Query string: Quick one: growth inhibition of `COc1ccc(N=N/C(=N/NC(=O)c2cc(Cl)ccc2C(=O)c2ccccc2)c2ccc(N(CCC#N)CCC#N)cc2C)cc1` ?
Result string: 12.5

Query string: Quick one: growth inhibition for CN(C(=O)c1ccc([N+](=O)[O-])cc1)C(c1ccco1)P(=O)(c1ccccc1)c1ccccc1 (centres undefined) ?
Result string: 0.4

Query string: // growth inhibition lookup, key: CC(=O)OC(CCC1CO1)OC(C)=O (centres undefined)
Result string: -7.65

----------
experiment description: NCI Yeast Anticancer Drug Screen. Data for the sgs1 mgt1 strain (AID 161);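 further: 0% = growth of cultures given vehicle only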
condition notes: S. cerevisiae sgs1 mgt1 strain, stronger effect = higher value; at 50.0 µM unless noted
This is part of a sample that, as a whole, favours compounds with a hit. Of some 79,000 tested, about 15% had one in any assay.
measurement type: growth inhibition (%)
Supply the numeric figure in %, leaving out any unit text.

Example molecules with recorded growth inhibition:
[[record]]
molecule = "O=C1N(Cc2ccccc2)CCN1Cc1ccccc1"
recorded_number = -11.7

[[record]]
molecule = "Cc1ccc(C2=Nc3cc(C)c(Cl)cc3S(=O)(=O)NN2)cc1"
recorded_number = -48.8

[[record]]
molecule = "CCOC(=O)/C(SC#N)=C(/N)N1CCCC1"
recorded_number = -4


Query string: So what's the measured growth inhibition for this one? `O=C(CC(=O)C(F)(F)F)c1ccccc1.O=C(CC(=O)C(F)(F)F)c1ccccc1.[Mn]`
Result string: 19.2

Query string: So what's the measured growth inhibition for this one? COc1c(OC(C)=O)c(OC(C)=O)cc2c1-c1ccc(SC)c(=O)cc1C(NC(C)=O)CC2 (stereo not given)
Result string: -28.8

Query string: What value of growth inhibition has been reported for the following molecule? `COC1(OC)C(C#N)=C(c2ccccc2)C1(OC)OC`
Result string: -6.5

----------
Listing: growth inhibition of selected compounds
experiment description: NCI Yeast Anticancer Drug Screen. Data for the rad50 strain (AID 155);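 further: 0% = growth of vehicle-only cultures of the same strain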
condition notes: S. cerevisiae rad50 strain growth inhibition, stronger effect = higher value; at 50.0 µM unless noted
Experimental: Growth inhibition of yeast strains with defined genetic alterations is measured as a screen for potential anti-cancer activity. Selected strains with alterations in DNA damage repair or cell cycle control were exposed to compounds and growth inhibition was measured relative to vehicle treated controls. The strain used in this assay is rad50
About 79,000 compounds went through this panel and 15% of them were active in at least one assay; those are over-represented in the sample as a whole.
// note: answer is a bare numeric in %

Query string: # query: growth inhibition of entry `CNS(=O)(=O)c1ccc(C)c(C)c1`
Result string: -0.5

Query string: Quick check: growth inhibition of CC(N)C(=O)NO (configuration not stated) ?
Result string: -20.4

Query string: Quick one: growth inhibition of COc1ccc(C(OC(=O)Oc2ccccc2)c2ccccc2)cc1 (configuration not stated) ?
Result string: -9.1

Query string: Need growth inhibition of `COCCN(CCOC)C(=O)Nc1ccc(Cl)cc1` , thanks.
Result string: 4.6
